target.of.assay: human MT1-MMP hemopexin domain (residues Cys319-Gly511, N-terminally His6-tagged soluble protein) (human) (UniProt P50281)
measurement.protocol: FP competition on human MT1-MMP hemopexin domain (footnote a: tracer 17-69-07-N040; footnote e: 17-69-07-N004)
Numbered stars: 1 amine (or outer) side, 2 acyl side, 3 side chain; on linkers, the order of the positions; unused ones are H or OH. Bridge positions count the residues as written; N and C are the ends. Square brackets hold non-standard residues; d marks the D form. Ends that are not written are not given here. unhindered disulfide linker = not defined here; 1Nal = N[C@@H](Cc1cccc2ccccc12)C(=O)O; TBMB = c1c(C[*:1])cc(C[*:3])cc1C[*:2]; Tle = CC(C)(C)[C@H](N)C(=O)O; DM1 = maytansinoid; βAla = NCCC(=O)O; Sar = CNCC(=O)O
parameter.measured: pKd
pKd here is simply -log10 of the concentration when that concentration is written in mol/L.

Request: Specify measured pKd for {DM1-unhindered disulfide linker}-[βAla][Sar][Sar][Sar][Sar][Sar][Sar][Sar][Sar][Sar][Sar]AC[dA]NE[1Nal][dA]CEDFYD[Tle]C (linker 13-19-26 via TBMB; reading uncertain; also: exact linker structure not given here) [BT17BDC-17] .
Result: 9.15

Data origin: patent US12318454
